System: EKVX
Assay Overview: NCI tumour cell line growth inhibition, 48 h
Activity calls are given as the source filed them. Cut-off read from the data, not from the text of the source: active = GI50 up to about 1.1 µM and inactive = higher.
Overview of reported GI50 across a group of molecules:

| Molecule | GI50 |
| --- | --- |
| COc1ccc(/C=N/n2c(Cc3ccc(Cl)cc3)n[nH]c2=O)cc1 | 30.1 µM (inactive) |
| Cn1c2c(c3ccccc31)CCN1C(=O)C34CCCC3CC21S4 (stereo not drawn) | > 100 µM (inactive) |
| CCOC(=O)N[C@H]1CCc2cc(O)c(OC)c(OC)c2-c2ccc(SC)c(=O)cc21 | 0.483 µM (active) |

====

Test system: XF498
Assay Overview: NCI tumour cell line growth inhibition, 48 h
Calls of active or inactive are those of the source. Cut-off read from the data, not from the text of the source: active = GI50 up to about 1.1 µM and inactive = higher.
Attribute Measured: GI50

| Molecule | Attribute Measured | Value Measured |
| --- | --- | --- |
| O=c1c2cc(-c3ccccc3)sc2nc2sc(-c3ccccc3)nn12 | GI50 | > 100 µM (inactive) |
| Cn1c2c(cc(-c3ccccc3)c1=O)COc1ccccc1-2 | GI50 | 8.04 µM (inactive) |
| O=[N+]([O-])c1cc(Cl)ccc1OCc1ccccc1 | GI50 | 20.4 µM (inactive) |
| COc1ccc(C2C(C#N)=C(O)NC(O)=C2C#N)cc1OC | GI50 | > 100 µM (inactive) |
| C[C@@H]1O[C@@H](O[C@H]2[C@H](Oc3cc(O)c4c(=O)cc(-c5ccc(O)cc5)oc4c3)O[C@H](CO)[C@@H](O)[C@@H]2O)[C@H](O)[C@H](O)[C@H]1O [RHOIFOLIN] | GI50 | > 100 µM (inactive) |
| CCN(CC)CCCC(C)NC(=O)c1ccc2c(c1)C(=O)c1ccccc1C2=O (stereo not given) | GI50 | 16.1 µM (inactive) |
| CCC(C(=O)O)c1ccc(OCc2ccccc2)cc1 (stereo not given) | GI50 | > 100 µM (inactive) |
| CCN1C(=O)C/C(=C\C(C)=O)Nc2ccccc21 | GI50 | > 100 µM (inactive) |
| CCOC(=O)C1C(c2ccccc2)=C(c2ccccc2)C(c2ccccc2)=C1c1ccccc1 | GI50 | 21.9 µM (inactive) |
| CN(C)/N=N/c1[nH]cnc1C(N)=O [DACARBAZINE] | GI50 | 21.8 µM (inactive) |

====

Test system: SK-MEL-2
Assay Overview: NCI tumour cell line growth inhibition, 48 h
Active and inactive are the calls of the source. No stated cut-off is given here; in the data, active = GI50 up to about 1.1 µM and inactive = higher.

| Molecule | GI50 |
| --- | --- |
| CC(C)(C)C1=C(Br)C(OC(=O)C(F)(F)F)(C(C)(C)C)OP1(=O)c1ccccc1 (stereo unspecified) | 29.2 µM (inactive) |
| COC(=O)c1ccc(NCC2=CC(=O)c3ccccc3C2=O)cc1 | 18.9 µM (inactive) |
| N#CN1C2CCC1CC(=O)C2 | > 100 µM (inactive) |
| O=C1NC2=NOC(=O)NC2=NO1 | > 200 µM (inactive) |
| [N-]=[N+]=C1CNC(=O)NC1=O | > 100 µM (inactive) |
| CCOC(=O)C(C(=O)OCC)=C1NC2(c3ccccc3Nc3ccccc32)C(C#N)S1 (stereo unspecified) | 11.6 µM (inactive) |
| CC(=O)c1cccc(NC(=O)C(=O)C(C2OC(=O)c3ccccc32)[N+](=O)[O-])c1 (stereo unspecified) | > 100 µM (inactive) |
| Cc1cccc(/C=N/NC(=S)NC(C)(C)C)n1 | > 100 µM (inactive) |
| O=C(/C=C/c1ccc(O)c(O)c1)OCC(OC(=O)/C=C/c1ccc(O)c(O)c1)C(=O)O (stereo unspecified) | > 100 µM (inactive) |
| O=C(O)c1ccccc1CC(Cc1ccccc1)C(=O)O (stereo unspecified) | > 100 µM (inactive) |
| CN(C)CCCn1c2c3ccccc3ccc2c2oc(=O)c3ccccc3c21 | 9.23 µM (inactive) |

====

Test system: SK-MEL-2
Assay Overview: NCI tumour cell line growth inhibition, 48 h
Activity calls are given as the source filed them. Cut-off read from the data, not from the text of the source: active = GI50 up to about 1.1 µM and inactive = higher.
Overview of reported GI50 across a group of molecules:
Attribute Measured: GI50

| Molecule | Value Measured |
| --- | --- |
| O=C(O)c1ccc(/N=N/c2cc(S(=O)(=O)O)c3cccnc3c2O)cc1 | > 100 µM (inactive) |
| C/C(=N\NS(=O)(=O)c1ccc(C)cc1)c1ccccn1 | > 100 µM (inactive) |
| COc1cc(/C=N\N(C)C)cc(/C=N/N(C)C)c1O | 7.89 µM (inactive) |
| C[C@H](CCC(=O)O)[C@H]1CC[C@H]2[C@@H]3C(=O)C[C@@H]4C[C@H](O)CC[C@]4(C)[C@H]3C[C@H](O)[C@]12C | > 100 µM (inactive) |
| COc1cccc(C23CCN(C)C(CC(O)C2)C3)c1OC (stereo not given) | > 100 µM (inactive) |

====

Test system: IGROV-1
Assay Overview: NCI tumour cell line growth inhibition, 48 h
Activity calls are given as the source filed them. Rule as the data show it: active = GI50 up to about 1.1 µM and inactive = higher.
Outcome codes: y (active), n (inactive)

| Compound | Group Label |
| --- | --- |
| ClC(Cl)[Si]12OCCN(CCO1)CCO2 | n |
| CC(C)(C)c1cc(-c2cc(C(C)(C)C)[nH]n2)[nH]n1 | n |
| O=C(N[C@H](CO)[C@H](O)c1ccc([N+](=O)[O-])cc1)C(Cl)Cl [CHLORAMPHENICOL] | n |
| COC(=O)CCCc1nc2ccccc2nc1/N=N/c1ccccc1 | n |
| N#Cc1c(N)oc2cc3c(C#N)c(N)oc3cc12 | n |
| Cc1ccc(O)cc1.Cc1cccc(O)c1.Cc1ccccc1O [CRESOL] | n |
| COc1cccc2c1Cc1cc(-c3ccccc3)[n+](C)n1-2 | n |
| Cc1ccc2c(c1)[nH]c(=S)n2/C=C1\C(=O)Oc2ccccc2C1=O | n |
| CN(C)CCC(=O)N1C/C(=C\c2ccc(Cl)c(Cl)c2)C(=O)/C(=C/c2ccc(Cl)c(Cl)c2)C1 | y |
| COC(=O)[C@H]1[C@@H](O)[C@@]2(O)c3c(OC)cc(OC)cc3O[C@@]2(c2ccc3c(c2)OCO3)[C@@H]1c1ccccc1 | y |
| COc1cc2c(cc1OC)[C@@](C)(C(O)C(O)C(C)(C)O)NCC2 (stereo partly specified) | n |
| Sc1nn2c(COc3ccc(Cl)cc3)nnc2s1 | n |
| CCOC(=O)/C(=C/NC(=S)Nc1c(CC)cccc1C(C)(C)C)C(=O)c1ccccc1 | n |
| CN(C)CCCn1c2c3ccccc3ccc2c2oc(=O)c3ccccc3c21 | n |
| N#CSC/C(Cl)=C/Cl.N#CSC/C(Cl)=C\Cl | n |
| Nc1ccc(Oc2ccc(C34CC5CC(C3)CC(c3ccc(Oc6ccc(N)cc6C(F)(F)F)cc3)(C5)C4)cc2)c(C(F)(F)F)c1 | n |
| CN(C)/N=N/c1[nH]cnc1C(N)=O [DACARBAZINE] | n |
| Cc1cccc(/C=N/NC(=S)NC(C)(C)C)n1 | n |
| Cc1ccc(/C=C2/NC(=S)SC2=O)cc1 | n |
| COc1ccc(/C=C2\CCC(C)C3C2=NN(c2ccccc2)C3c2ccc(OC)c(OC)c2)cc1OC (stereo unspecified) | n |
| Cc1cc(S(=O)(=O)Nc2nnc3cnc4ccccc4n23)c(S)cc1Cl | n |

====

Test system: SK-MEL-28
Assay Overview: NCI tumour cell line growth inhibition, 48 h
The source made the active and inactive calls. Rule as the data show it: active = GI50 up to about 1.1 µM and inactive = higher.

| Molecule | Tested Target | GI50 |
| --- | --- | --- |
| O=C(O)c1ccc(/N=N/c2cc(S(=O)(=O)O)c3cccnc3c2O)cc1 | SK-MEL-28 | > 100 µM (inactive) |
| OC1(C2(c3ccc(Cl)cc3)CCCC2)c2ccccc2C2=NCCN21 (stereo unspecified) | SK-MEL-28 | 15.3 µM (inactive) |
| COC(=O)[C@H]1[C@@H](O)[C@@]2(O)c3c(OC)cc(OC)cc3O[C@@]2(c2ccc3c(c2)OCO3)[C@@H]1c1ccccc1 | SK-MEL-28 | 0.00815 µM (active) |
| O=C1CCc2c3c(c4c([nH]c5ccccc54)c2CC1)C(=O)NC3=O | SK-MEL-28 | 3.14 µM (inactive) |
| Cc1cccc(/C=N/NC(=S)NC(C)(C)C)n1 | SK-MEL-28 | > 100 µM (inactive) |
| Cc1cn2cc(-c3cccs3)nc2s1 | SK-MEL-28 | > 100 µM (inactive) |
| COC(=O)[C@@]12CC(C(C)C)[C@H]3CC(C(=O)C=C1OC)[C@H]32 (stereo partly specified) | SK-MEL-28 | > 100 µM (inactive) |
| COC(=O)c1sc2c(Cl)c(Cl)sc2c1Cl | SK-MEL-28 | > 100 µM (inactive) |
| COc1ccc(C2SC(C)C(=O)N2c2nc(-c3nc(-c4ccc(Cl)cc4)cs3)cs2)cc1 (stereo unspecified) | SK-MEL-28 | > 10 µM (inactive) |
| O=[N+]([O-])c1cccc(C2=NN(c3ccccc3)C3c4cc(Br)ccc4OCC23)c1 (stereo unspecified) | SK-MEL-28 | > 100 µM (inactive) |
| Cn1c(-c2ccccc2)cc(-c2cccs2)c1-c1cccs1 | SK-MEL-28 | > 100 µM (inactive) |
| C(=N\c1ccc(-c2nc3ccccc3[nH]2)cc1)/c1ccco1 | SK-MEL-28 | > 100 µM (inactive) |
| CCCCOC(=O)NC(=O)c1cn(CCSCCOC(=O)NCCCCCCNC(=O)OCCSCCn2cc(C(=O)NC(=O)OCCCC)c(=O)[nH]c2=O)c(=O)[nH]c1=O | SK-MEL-28 | > 100 µM (inactive) |
| O=c1[nH][nH]c(=O)n1CCCCCCn1c(=O)[nH][nH]c1=O | SK-MEL-28 | > 100 µM (inactive) |
| C1=C\SS/C=C\SS/1 | SK-MEL-28 | > 100 µM (inactive) |
| CC12CCCCC1(C)C2Sc1ccccc1 (stereo unspecified) | SK-MEL-28 | 40.5 µM (inactive) |
| O=C(N[C@H](CO)[C@H](O)c1ccc([N+](=O)[O-])cc1)C(Cl)Cl [CHLORAMPHENICOL] | SK-MEL-28 | > 100 µM (inactive) |
| CCN(C1=CC(=O)NC2CCCCN12)c1ccccc1 (stereo unspecified) | SK-MEL-28 | > 100 µM (inactive) |
| COc1cc2c(cc1OCCCOc1cc3c(cc1OC)C(=O)N1CCC[C@H]1C(=O)N3)N=C[C@@H]1CCCN1C2=O | SK-MEL-28 | 21 µM (inactive) |
| CC1=NN(c2cccc(S(=O)(=O)O)c2)C2(C1)SCC(=O)N2c1nc2ccccc2s1 (stereo unspecified) | SK-MEL-28 | > 100 µM (inactive) |
| NCCN1CC2CCC(CC2)C1 | SK-MEL-28 | > 10 µM (inactive) |
